- Test system: EKVX NSCLC
- protocol summary: NCI tumour cell line growth inhibition, 48 h
measurement kind: TGI

Qu. What value of TGI has been recorded for this entry: COC(=O)C(Cc1c[nH]c2ccccc12)N=C1Nc2ccncc2S(=O)(=O)N1c1cccc(OC(C)C)c1 (stereo not given)
Ans. > 100 µM

Qu. Further, for CCC1C(c2ccccc2O)c2cc3c(cc2OC1N1CCOCC1)OCO3 (stereo not given) ?
Ans. 25.4 µM

Qu. Repeat for the following molecule: CCOC(=O)C1Nc2ccccc2[C@H]2OCC[C@@H]12 (stereo not given in full)
Ans. > 100 µM

Qu. Next: ClC1=C(Cl)C(Cl)(Cl)c2c3c(c4c(c21)C(Cl)(Cl)C(Cl)=C4Cl)C(Cl)(Cl)C(Cl)=C3Cl
Ans. > 100 µM

Qu. Also CN1CCN(P2(=S)Oc3ccc4ccccc4c3-c3c(ccc4ccccc34)O2)CC1 , if possible.
Ans. > 77.8 µM

Qu. Item: CN(CCCNC(=O)c1cc(-c2ccccc2)nc2ccccc12)CCCNC(=O)c1cc(-c2ccccc2)nc2ccccc12
Ans. 17.2 µM

Qu. Entry O=C1CCCC/C1=C\c1ccc(Cl)c(Cl)c1 please
Ans. > 100 µM

Qu. Lookup COc1cc2cc(Oc3ccc(NC(=O)c4ccc(Cl)c(Cl)c4)cc3)c(C)nc2cc1OC
Ans. > 100 µM

Qu. Same thing, different molecule: Cc1[nH]c(-c2cc(N)ccc2Cl)c2c1C(=O)CCCC2
Ans. > 100 µM

Qu. Could you do the same for Cc1cnc2c(c1C)C(=O)c1ccccc1C2=O , please?
Ans. > 100 µM

Origin of values: PubChem BioAssay (NCI)
